assay: Selectivity index, ratio of EC50 for cytotoxicity against human IMR90 cells to EC50 for anti-parasitic activity against Leishmania amazonensis promastigotes; type: toxicity, cell-based; conditions: read-out: Ratio EC50
Attribute: selectivity ratio
quantity_name: selectivity ratio

[[record]]
smiles_code = "O=C(Nc1ccc(S(=O)(=O)N2CCC(Cl)CC2)cc1)c1ccc([N+](=O)[O-])o1"
quantity_name = "selectivity ratio"
test_result = "> 3"

[[record]]
smiles_code = "O=C(Nc1ccc(S(=O)(=O)N2CCC(O)CC2)cc1)c1ccc([N+](=O)[O-])o1"
quantity_name = "selectivity ratio"
test_result = "> 6"

[[record]]
smiles_code = "O=C(Nc1ccc(S(=O)(=O)C2=CCOC=C2)cc1)c1ccc([N+](=O)[O-])o1"
quantity_name = "selectivity ratio"
test_result = "> 83"

[[record]]
smiles_code = "CC1(C)CCN(S(=O)(=O)c2cccc(NC(=O)c3cccc([N+](=O)[O-])c3)c2)CC1"
quantity_name = "selectivity ratio"
test_result = "> 8"

[[record]]
smiles_code = "O=C(Nc1ccc(S(=O)(=O)N2CCC3(CCCCC3)CC2)cc1)c1ccc([N+](=O)[O-])o1"
quantity_name = "selectivity ratio"
test_result = "> 17"

